Origin of the recorded values: paper PMC11087051

Provide the reported max solve (DMSO) of each item.
Assay: Maximal solubility of the synthetic peptides in water and in DMSO (sheet Peptide_mixes)
Type: physicochemical
Settings: in DMSO; number in brackets in the cell
Description: Supplement elife-90674-supp3.xlsx, sheet "Peptide_mixes"
No end group written: not given here.
Expressed in mg/mL, but write only the number.

Task item: Suppose we examine the substance GYYRDNIQETRQYLDPRP-NH2 [RHa4] ; what max solve (DMSO) value has been reported?
Reply: 10

Task item: What about RSNRVVIHTGANPTMAPLRIPF-NH2 [IPFa] ?
Reply: 10

Task item: Next substance: GPRGGRSYDGPRG-NH2 [PRGa4]
Reply: 10

Task item: Query GPPGLW-NH2 [GLWa3] next
Reply: 10

Task item: What do we get for LPPRFGGQI-NH2 [QIa] ?
Reply: 10

Task item: Also check IPPQGLRFNQW-NH2 [QWa2]
Reply: 10

Task item: Moving on to the next substance: QPGNMKVWSDPF [PNX12]
Reply: 5

Task item: Input NPPQPPFRIPI-NH2 [IPIa]
Reply: 10

Task item: Now consider YPPFLELGQPSYFHIR-NH2 [HIRa2] .
Reply: 10

Task item: Proceed to NPPIDLGPAYFHIR-NH2 [HIRa5]
Reply: 10

Task item: Can you check FPPGFHRP-NH2 [HRPa] next?
Reply: 10

Task item: Can you check YPPLNTV-NH2 [NTVa] next?
Reply: 10

Task item: Likewise for SPPQWKLDSSPPQW [QW3] ?
Reply: 10

Task item: Consider next the substance APPGNGEGEAGFIPWFS-NH2 [WFSa] in the same way.
Reply: 2

---

Assignment: determine reported max solve water for the given molecules.
Experiment: Maximal solubility of the synthetic peptides in water and in DMSO (sheet Peptide_mixes)
Type: physicochemical
Conditions: in water; number before the bracket in the cell
Residues, ends and D or L forms follow the SMILES beside them.
I only need the number, in mg/mL, no unit after it.

Task item: For CC(C)C[C@H](NC(=O)CNC(=O)CNC(=O)[C@@H]1CCC(=O)N1)C(=O)N[C@@H](CCCNC(=N)N)C(=O)N[C@@H](Cc1c[nH]c2ccccc12)C(N)=O [LRWa2] (HELM PEPTIDE1{[Glp].G.G.L.R.W.[am]}$$$$V2.0) , what is its reported max solve water?
Reply: 5

Task item: # iterate: CC(C)C[C@H](NC(=O)CNC(=O)[C@@H]1CCCN1C(=O)[C@H](C)NC(=O)CNC(=O)[C@H](C)NC(=O)[C@@H]1CCC(=O)N1)C(=O)N[C@@H](Cc1c[nH]c2ccccc12)C(N)=O [GLWa1] (HELM PEPTIDE1{[Glp].A.G.A.P.G.L.W.[am]}$$$$V2.0)
Reply: 5

Task item: Again, but for CC[C@H](C)[C@H](NC(=O)[C@H](Cc1c[nH]cn1)NC(=O)[C@H](Cc1ccccc1)NC(=O)[C@H](Cc1ccc(O)cc1)NC(=O)[C@H](C)NC(=O)[C@@H]1CCCN1C(=O)CNC(=O)[C@H](CC(C)C)NC(=O)[C@H](CC(=O)O)NC(=O)[C@H](CC(C)C)NC(=O)[C@@H]1CCCN1C(=O)[C@@H]1CCCN1C(=O)[C@@H]1CCC(=O)N1)C(=O)N[C@@H](CCCNC(=N)N)C(N)=O [HIRa4] (HELM PEPTIDE1{[Glp].P.P.L.D.L.G.P.A.Y.F.H.I.R.[am]}$$$$V2.0)
Reply: 5

Task item: Same lookup for CC(C)C[C@H](NC(=O)[C@H](Cc1c[nH]cn1)NC(=O)[C@H](CO)NC(=O)[C@H](CC(C)C)NC(=O)[C@@H]1CCCN1C(=O)[C@@H]1CCCN1C(=O)[C@@H]1CCC(=O)N1)C(=O)N[C@@H](CO)C(N)=O [HLSa] (HELM PEPTIDE1{[Glp].P.P.L.S.H.L.S.[am]}$$$$V2.0) , please.
Reply: 0

Task item: Continue with CC(C)C[C@H](NC(=O)[C@H](Cc1ccc(O)cc1)NC(=O)[C@@H]1CCC(=O)N1)C(=O)N[C@@H](CC(=O)O)C(=O)N1CCC[C@H]1C(=O)N[C@@H](CCCNC(=N)N)C(=O)N1CCC[C@H]1C(N)=O [RHa5] (HELM PEPTIDE1{[Glp].Y.L.D.P.R.P.[am]}$$$$V2.0)
Reply: 10

Task item: Request: CSCC[C@H](NC(=O)[C@H](CC(C)C)NC(=O)CNC(=O)[C@@H]1CCC(=O)N1)C(=O)N[C@@H](Cc1ccccc1)C(=O)N[C@@H](CCCNC(=N)N)C(=O)N1CCC[C@H]1C(N)=O [FRPa2] (HELM PEPTIDE1{[Glp].G.L.M.F.R.P.[am]}$$$$V2.0)
Reply: 5
